# Organism: Oryctolagus cuniculus
# experiment: Effect on PAF-induced platelet aggregation in rabbit platelet-rich plasma at 10 uM
# Type: functional
Numbered stars: 1 amine (or outer) side, 2 acyl side, 3 side chain; on linkers, the order of the positions; unused ones are H or OH. Square brackets hold non-standard residues; d marks the D form. Peptide text beside a SMILES is read from it. X1 = COc1cc(C2c3[nH]c4ccccc4c3CC(C(=O)[*:2])N2[*:1])cc(OC)c1O
recorded endpoint: Activity (%)
Provide only the numeric value, understood in %.

| compound | Activity, % |
| --- | --- |
| N=C(N)NCCC[C@H](N)C(=O)NCC(=O)N[C@@H](CC(=O)O)C(=O)N[C@@H](Cc1ccccc1)C(=O)O (H-RGDF-OH) | 7.73 |

Data request: Query Activity for CC(C)[C@H](NC(=O)[C@H](CC(=O)O)NC(=O)CNC(=O)[C@@H](N)CCCNC(=N)N)C(=O)O (H-RGDV-OH)
Data returned: 20.01

Data request: Give the reported value of Activity for this record: COc1cc(C2NC(C(=O)N[C@@H](CCCN=C(N)N)C(=O)NCC(=O)N[C@@H](CC(=O)O)C(=O)N[C@@H](Cc3ccccc3)C(=O)O)Cc3c2[nH]c2ccccc32)cc(OC)c1O (some centres not stated) (H-[X1]RGDF-OH)
Data returned: 21.52

Data request: Provide measured Activity value, entry: COc1cc(C2NC(C(=O)N[C@@H](CCCN=C(N)N)C(=O)NCC(=O)N[C@@H](CC(=O)O)C(=O)N[C@@H](CO)C(=O)O)Cc3c2[nH]c2ccccc32)cc(OC)c1O (some centres not stated) (H-[X1]RGDS-OH)
Data returned: 28.61

Data request: Output measured Activity for this item: "N=C(N)NCCC[C@H](N)C(=O)NCC(=O)N[C@@H](CC(=O)O)C(=O)N[C@@H](CO)C(=O)O"
Data returned: 22.03

Data request: Output measured Activity for this item: COc1cc(C2NC(C(=O)N[C@@H](CCCN=C(N)N)C(=O)NCC(=O)N[C@@H](CC(=O)O)C(=O)N[C@H](C(=O)O)C(C)C)Cc3c2[nH]c2ccccc32)cc(OC)c1O (some centres not stated) (H-[X1]RGDV-OH)
Data returned: 25.88

Data request: Query Activity for COc1cc(C2N[C@H](C(=O)O)Cc3c2[nH]c2ccccc32)cc(OC)c1O (some centres not stated)
Data returned: 36.34

Hey, just so you know, these numbers are from ChEMBL document CHEMBL1149335.
